assayed-system: His6-GSK-3β (Homo sapiens, UniProt P49841)
Construct: made in house; host or cells: Sf21 insect cells (baculovirus)
Sequence (P49841 2-419): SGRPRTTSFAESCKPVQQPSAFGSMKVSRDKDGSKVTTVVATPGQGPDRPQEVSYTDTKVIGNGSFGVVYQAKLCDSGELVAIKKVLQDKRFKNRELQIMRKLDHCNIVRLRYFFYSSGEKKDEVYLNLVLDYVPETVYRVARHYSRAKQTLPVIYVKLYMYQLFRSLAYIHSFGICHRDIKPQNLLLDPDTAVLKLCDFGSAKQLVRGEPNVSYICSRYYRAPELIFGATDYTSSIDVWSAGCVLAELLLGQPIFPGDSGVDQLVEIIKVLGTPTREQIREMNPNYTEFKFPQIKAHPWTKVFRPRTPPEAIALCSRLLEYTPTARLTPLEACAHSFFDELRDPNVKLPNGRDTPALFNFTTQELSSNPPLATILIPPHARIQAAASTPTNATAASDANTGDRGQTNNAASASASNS
method: Inhibition of His6-GSK-3β kinase activity (ELISA-based format, time-resolved fluorescence readout)
Format: biochemical
assay-conditions: class symbols; read-out: GSK3β IC50
Where a name gives a salt, the structure may show the parent alone.

compound	IC50
CCCn1cc2c(C3C(=O)Nc4ccc(Br)cc43)nc(NCCNC)nc2n1 (centres unmarked) [Example 365, hydrochloride salt]	< 300 nM
N#Cc1ccc2c(c1)C(c1nc(NCCc3ccccc3)nc3nn(C4CCCC4)cc13)C(=O)N2 (centres unmarked)	< 300 nM
C=CCNc1nc(C2C(=O)Nc3ccc(C#N)cc32)c2cn(C3CCCC3)nc2n1 (centres unmarked)	< 300 nM
O=C1Nc2c(F)cc(F)cc2C1c1ncnc2nn(C3CCCC3)cc12 (centres unmarked)	300 to 3000 nM
CCN(CC)CCN(C)c1nc(C2C(=O)Nc3ccc(C#N)cc32)c2cn(C3CCCC3)nc2n1 (centres unmarked)	< 300 nM
CCOCCn1cc2c(C3C(=O)Nc4ccc(Cl)cc43)nc(NCCCNC)nc2n1 (centres unmarked)	300 to 3000 nM
CCCn1cc2c(C3C(=O)Nc4ccc(Br)cc43)nc(NCCc3ccccn3)nc2n1 (centres unmarked)	< 300 nM
O=C1Nc2c(cc([N+](=O)[O-])cc2[N+](=O)[O-])C1c1ncnc2nn(C3CCCC3)cc12 (centres unmarked)	300 to 3000 nM
O=C1Nc2c(cc([N+](=O)[O-])cc2[N+](=O)[O-])C1c1ncnc2c1cnn2C1CCCC1 (centres unmarked)	> 10000 nM
CN(C)CCCNc1nc(C2C(=O)Nc3ccc(Cl)cc32)c2cn(C3CCCC3)nc2n1 (centres unmarked)	300 to 3000 nM
O=C1Nc2ccc(F)cc2C1c1ncnc2nn(C3CCCC3)cc12 (centres unmarked)	300 to 3000 nM
[N-]=[N+]=NCCCn1cc2c(C3C(=O)Nc4ccc(Br)cc43)ncnc2n1 (centres unmarked)	< 300 nM
O=C1Nc2ccccc2C1c1nc(Cl)nc2nn(C3CCCC3)cc12 (centres unmarked)	> 10000 nM
N#Cc1ccc2c(c1)C(c1nc(NCCN3CCOCC3)nc3nn(C4CCCC4)cc13)C(=O)N2 (centres unmarked)	< 300 nM
N#Cc1ccc2c(c1)C(c1nc(N3CCNCC3)nc3c1CCC3)C(=O)N2 (centres unmarked)	300 to 3000 nM
CCCn1cc2c(C3C(=O)Nc4ccc(Br)cc43)nc(NCCC(F)(F)F)nc2n1 (centres unmarked)	< 300 nM
Cn1cc2c(C3C(=O)Nc4ccc(Br)cc43)ncnc2n1 (centres unmarked)	300 to 3000 nM

###

assayed-system: His6-GSK-3β (Homo sapiens, UniProt P49841)
Construct: made in house; host or cells: Sf21 insect cells (baculovirus)
method: Inhibition of His6-GSK-3β kinase activity (ELISA-based format, time-resolved fluorescence readout)
Format: biochemical
assay-conditions: class symbols; read-out: GSK3β IC50
pIC50: −log10 of the molar value.

compound	pIC50
CCOCCn1cc2c(C3C(=O)Nc4ccc(Br)cc43)nc(NCCN(C)C)nc2n1 (stereo not shown)	> 6.52
COCCN(CCOC)c1nc(C2C(=O)Nc3ccc(C#N)cc32)c2cn(C3CCCC3)nc2n1 (stereo not shown)	> 6.52
O=C1Nc2ccc(F)cc2C1c1nc(Cl)nc2c1CCC2 (stereo not shown)	< 5.00
CC(=O)NCCNc1nc(C2C(=O)Nc3ccc(Cl)cc32)c2cn(C3CCCC3)nc2n1 (stereo not shown)	> 6.52
N#Cc1ccc2c(c1)C(c1nc(NCCc3cccnc3)nc3nn(C4CCCC4)cc13)C(=O)N2 (stereo not shown)	> 6.52
C=CCNc1nc(C2C(=O)Nc3ccc(Br)cc32)c2cn(CCC)nc2n1 (stereo not shown)	> 6.52
CNc1nc(C2C(=O)Nc3ccc(C(F)(F)F)cc32)c2cn(C3CCCC3)nc2n1 (stereo not shown)	< 5.00
CN(C)CCCNc1nc(C2C(=O)Nc3ccc(Br)cc32)c2cn(C)nc2n1 (stereo not shown)	5.52 to 6.52
N#Cc1ccc2c(c1)C(c1nc(Cl)nc3nn(C4CCCC4)cc13)C(=O)N2 (stereo not shown)	> 6.52
CCCn1cc2c(C3C(=O)Nc4ccc(Br)cc43)nc(NC[C@H](O)CO)nc2n1 (stereo partly shown)	> 6.52
CCCn1cc2c(C3C(=O)Nc4ccc(Br)cc43)nc(NCCN3CCOCC3)nc2n1 (stereo not shown)	> 6.52
CN(C)CCNc1nc(C2C(=O)Nc3ccc(Cl)cc32)c2cn(C3CCCC3)nc2n1 (stereo not shown)	5.52 to 6.52
N#Cc1ccc2c(c1)C(c1nc(N3CCN(CCc4ccccn4)CC3)nc3nn(C4CCCC4)cc13)C(=O)N2 (stereo not shown)	> 6.52
N#Cc1ccc2c(c1)C(c1ncnc3c1cnn3C1CCCC1)C(=O)N2 (stereo not shown)	5.52 to 6.52
CCCn1cc2c(C3C(=O)Nc4ccc(Br)cc43)nc(N[C@H]3CCNC3)nc2n1 (stereo partly shown)	5.52 to 6.52
N#Cc1ccc2c(c1)C(c1ncnc3[nH]ncc13)C(=O)N2 (stereo not shown)	> 6.52
O=C1Nc2ccc(Br)cc2C1c1nc(NCCCN2CCOCC2)nc2c1CCC2 (stereo not shown)	5.52 to 6.52
O=C1Nc2ccc(Br)cc2C1c1nc(NCCc2cccnc2)nc2nn(C3CCCC3)cc12 (stereo not shown)	> 6.52
COCCNc1nc(C2C(=O)Nc3ccc(C#N)cc32)c2cn(C3CCCC3)nc2n1 (stereo not shown)	> 6.52
O=C1Nc2ccccc2C1c1ncnc2nn(C3CCCC3)cc12 (stereo not shown)	5.52 to 6.52
O=C1Nc2ccccc2C1c1nc(NCc2ccncc2)nc2nn(C3CCCC3)cc12 (stereo not shown)	> 6.52
CCCn1cc2c(C3C(=O)Nc4ccc(Br)cc43)nc(N[C@@H]3CCNC3)nc2n1 (stereo partly shown)	5.52 to 6.52
Cn1nc([N+](=O)[O-])c2c(C3C(=O)Nc4ccc(C#N)cc43)ncnc21 (stereo not shown)	< 5.00
O=C1Nc2ccc(F)cc2C1c1nc(NCc2ccccn2)nc2c1CCC2 (stereo not shown)	< 5.00
O=C1Nc2ccc(C(F)(F)F)cc2C1c1ncnc2c1cnn2C1CCCC1 (stereo not shown)	< 5.00
O=C1Nc2ccc(Cl)cc2C1c1ncnc2c1cnn2C1CCCCC1 (stereo not shown)	< 5.00
COc1ccc(Nc2nc3c(c(C4C(=O)Nc5ccc(C#N)cc54)n2)CCC3)cn1 (stereo not shown)	< 5.00
O=C1Nc2ccc(F)c(F)c2C1c1ncnc2nn(C3CCCC3)cc12 (stereo not shown)	5.52 to 6.52
N#Cc1ccc2c(c1)C(c1nc(NCc3cccnc3)nc3c1CCC3)C(=O)N2 (stereo not shown)	5.52 to 6.52
CCCn1cc2c(C3C(=O)Nc4ccc(Br)cc43)nc(NCCc3cccnc3)nc2n1 (stereo not shown)	> 6.52
CCOCCn1cc2c(C3C(=O)Nc4ccc(Cl)cc43)nc(NCCN(C)C)nc2n1 (stereo not shown)	5.52 to 6.52
CCCOCCNc1nc2c(c(C3C(=O)Nc4ccc(C#N)cc43)n1)CCC2 (stereo not shown)	< 5.00
COCCn1cc2c(C3C(=O)Nc4ccc(Br)cc43)nc(NCCC3CCNCC3)nc2n1 (stereo not shown)	> 6.52
CCCn1cc2c(C3C(=O)Nc4ccc(C#N)cc43)nc(NCc3ccncc3)nc2n1 (stereo not shown)	> 6.52

###

assayed-system: CDK5/GST-p25 (Homo sapiens, UniProt Q00535)
Construct: The final construct, encoding for full-length human CDK5; made in house; host or cells: Sf21 insect cells (baculovirus co-infection)
Sequence (Q00535 whole entry): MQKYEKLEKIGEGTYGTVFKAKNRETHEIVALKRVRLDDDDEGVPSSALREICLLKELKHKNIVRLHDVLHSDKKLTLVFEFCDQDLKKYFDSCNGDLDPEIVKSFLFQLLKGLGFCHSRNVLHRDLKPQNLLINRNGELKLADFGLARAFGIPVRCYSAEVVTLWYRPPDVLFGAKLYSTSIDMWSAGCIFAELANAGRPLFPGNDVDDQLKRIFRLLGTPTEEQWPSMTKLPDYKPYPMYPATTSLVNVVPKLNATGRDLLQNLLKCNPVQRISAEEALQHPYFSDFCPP
Sequence (Q15078 108-307 partner limits assumed): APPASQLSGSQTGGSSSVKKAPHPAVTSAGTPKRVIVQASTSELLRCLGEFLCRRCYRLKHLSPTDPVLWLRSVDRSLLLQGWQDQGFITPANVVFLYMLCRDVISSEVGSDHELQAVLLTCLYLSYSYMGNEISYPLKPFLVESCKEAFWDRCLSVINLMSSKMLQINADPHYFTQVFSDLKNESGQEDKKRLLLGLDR
method: Inhibition of CDK5/GST-p25 kinase activity (ELISA with time-resolved fluorescence readout)
Format: biochemical
assay-conditions: class symbols
pIC50: −log10 of the molar value.
pIC50 reference
attribute-measured: pIC50

compound	result
O=C1Nc2cc(Cl)ccc2C1c1ncnc2c1cnn2C1CCCC1 (centres unmarked)	< 5.00
CCOCCn1cc2c(C3C(=O)Nc4ccc(Cl)cc43)nc(NCCN(C)C)nc2n1 (centres unmarked)	5.52 to 6.52
Cl.NCCCNc1nc(C2C(=O)Nc3ccc(C(F)(F)F)cc32)c2cn(C3CCCC3)nc2n1 (centres unmarked) [Example 254, hydrochloride salt]	5.52 to 6.52
N#Cc1cccc2c1NC(=O)C2c1ncnc2nn(C3CCCC3)cc12 (centres unmarked)	> 6.52
O=C1Nc2ccc(Cl)cc2C1c1ncnc2nn(C3CCCCC3)cc12 (centres unmarked)	5.52 to 6.52
CC(=O)NCCNc1nc(C2C(=O)Nc3ccc(C#N)cc32)c2cn(C3CCCC3)nc2n1 (centres unmarked)	> 6.52
CN(C)CCCNc1nc2c(c(C3C(=O)Nc4ccc(C#N)cc43)n1)CCC2 (centres unmarked)	5.52 to 6.52
N#Cc1ccc2c(c1)C(c1nc(NCc3cccnc3)nc3nn(C4CCCC4)cc13)C(=O)N2 (centres unmarked)	> 6.52
